Ref: a melting point compilation (Tetko et al.)

- test.context: a range is the spread between reports
measure: melting point

Here is how some compounds turned out for melting point.
OCCCCO = 16 to 20.4 °C
O=[N+]([O-])c1ccc(F)cc1F = 9 to 10 °C
ICCI = 80 to 83 °C
C=CCc1ccc(O)c(OC)c1 = -10 to -9 °C
N#CCc1cccc2ccccc12 = 32.5 to 34 °C
CC/C=C/CC = -115 to -113 °C
C(=Nc1ccccc1)Nc1ccccc1 = 138 to 142 °C
Cc1ccc(S(=O)(=O)c2ccc(C)cc2)cc1 = 157 to 159 °C

Exercise: Requested read-out: melting point. Entry: O=C(c1ccco1)C(O)c1ccco1 (stereo unspecified)
Solution: 136 to 138 °C

Exercise: # get_value(readout='melting point', item= "O=C(O)Cc1cccc(C(F)(F)F)c1" )
Solution: 77 to 78 °C

Exercise: Name the recorded melting point for "CC(CC(=O)O)CC(=O)O" .
Solution: 86 to 87 °C

Exercise: melting point for "Nc1c(Br)cc([N+](=O)[O-])cc1[N+](=O)[O-]" ?
Solution: 152 to 154 °C

Exercise: What value of melting point has been reported for the following compound? "FC(F)(F)c1ccccc1Cl"
Solution: -7.4 to -6 °C

Exercise: Which melting point value belongs to "CCCCCCCCCCCCCCCCCCCCCCCC" ?
Solution: 51 to 54 °C

Exercise: Query (compound): "COc1cc([N+](=O)[O-])ccc1N" ; field requested: melting point
Solution: 140 to 141 °C

Exercise: Item under review: CCCCCCCCCCCC(C)O (stereo unspecified) . Reported melting point?
Solution: 23 to 25 °C

---

- test.context: a range is the spread between reports
This section presents compounds with their documented melting point values.

Cc1n[nH]cc1Br = 75 to 76.5 °C

Exercise: Requested read-out: melting point. Entry: "CC(C)C(C(C)C)C(C)C"
Solution: -82 to -81.7 °C

Exercise: Returns the measured melting point for the input compound. Input: "CN(C)c1ccc(Cc2ccc(N(C)C)cc2)cc1"
Solution: 87 to 91.5 °C

Exercise: Name the recorded melting point for "CCCCC=O" .
Solution: -92 to -91 °C

Exercise: // lookup melting point for CC(C)(C)c1ccc(C(O)CCCN2CCC(C(O)(c3ccccc3)c3ccccc3)CC2)cc1 (stereo not drawn)
Solution: 147 to 148 °C

Exercise: For the compound shown here, "CC/C=C/C(C)C" , give the reported melting point.
Solution: -142 °C

---

- test.context: a range is the spread between reports
Below is a list of entries, each paired with its recorded melting point value.

CCOc1ccc(C(C)=O)cc1 = 37 to 39 °C
Nc1ccc(F)c(Cl)c1 = 45.5 to 46 °C
c1ccc(C(c2ccccc2)(c2ccccc2)c2ccccc2)cc1 = 282 to 283 °C
Nc1cccc2ncccc12 = 108 to 110 °C
CN(C)C(N)=O = 180 to 184 °C
O=C(O)c1cccc(C(=O)O)c1 = 342 to 347 °C
O=C(n1ccnc1)n1ccnc1 = 118 to 119 °C

Now for a further compound.
Exercise: Need melting point of "CN(C)c1ccc(C=O)cc1" , thanks.
Solution: 74 to 75 °C

---

- test.context: a range is the spread between reports
// values below are reported melting point

Previously resolved entries follow.
CC(N)=S = 112 to 116 °C
O=C(O)C(=Cc1ccccc1)c1ccccc1 = 171 to 172 °C
CCCCC(CC)COP(=O)(OCC(CC)CCCC)OCC(CC)CCCC (configuration not stated) = -74 to -70 °C

Exercise: melting point for "Oc1cccc(Nc2ccccc2)c1" ?
Solution: 80 to 81.5 °C

Exercise: May I ask what melting point has been recorded for CCCCC(C)CCC (configuration not stated) ?
Solution: -113 °C

Exercise: I am curious: what melting point value has been reported for "O=C(O)c1cccnc1" ?
Solution: 237 to 238 °C

---

- test.context: a range is the spread between reports
measure: melting point

O=C1c2ccccc2C(=O)N1CCBr = 82 to 82.5 °C

Exercise: Please give the measured melting point for this compound: "Cc1ccc(C)s1"
Solution: -63 to -62.6 °C

---

Reported melting point values are given for each entry in this list.
- test.context: a range is the spread between reports

Consider the worked cases shown below.
O=C(Oc1ccccc1)Oc1ccccc1 = 79 to 83 °C
COC(=O)c1cc(Cl)ccc1N = 67 to 69 °C
Oc1ccc(-c2ccccc2)cc1 = 165 to 167 °C

Exercise: Fill blank: measured melting point of the compound "CCNC(=O)C(=O)NCC" is ____.
Solution: 175 to 180 °C

Exercise: Please give the measured melting point for this compound: "CCCCCCCCCl"
Solution: -58 to -57.8 °C

Exercise: GET /values?readout=melting point&item= "COC(=O)c1cc(Cl)ccc1O"
Solution: 46 to 50 °C

---

- test.context: a range is the spread between reports
measure: melting point

O=c1[nH]c(=O)n(C2CC(O)C(CO)O2)cc1F (configuration not stated) = 150 °C
COc1ccc(C=O)c(OC)c1 = 69 to 72 °C
Fc1cc(F)c(F)cc1F = 4 to 4.5 °C
CCOC=O = -81 to -79.6 °C

Exercise: Quick one: melting point of "O=P(O)(Oc1ccccc1)Oc1ccccc1" ?
Solution: 66 to 67.5 °C

Exercise: Entry "Cc1ccc2c(c1N)C(=O)c1ccccc1C2=O" has what melting point?
Solution: 205 to 206 °C

Exercise: What does the data say about its melting point? Entry: "CCCCC#N"
Solution: -96.2 to -96 °C

---

- test.context: a range is the spread between reports
measure: melting point

Exercise: Which melting point value is on record for "Clc1ccc(Cl)c(Cl)c1Cl" ?
Solution: 47 to 47.5 °C

---

- test.context: a range is the spread between reports
measure: melting point

Brc1ccccc1I = 9.5 to 10 °C

Exercise: Entry "O=Cc1ccc(C(F)(F)F)cc1" : reported melting point = ?
Solution: 1.5 to 2 °C

Exercise: Name the reported melting point value associated with the compound "Cc1cncnc1"
Solution: 30 to 32 °C

---

Examples of molecules with documented melting point follow.
- test.context: a range is the spread between reports

CC1CC1(C)C (centres undefined) = -138 °C
S=C=S = -112 °C

Exercise: Report melting point for "CCC#CCCC" please.
Solution: -131 to -130 °C

Exercise: Data request, read-out melting point, for "O=C(O)CC(O)(CC(=O)O)C(=O)O"
Solution: 153 to 154 °C

Exercise: Consider the molecule shown here: "CC1=CCCCC1" What is its recorded melting point?
Solution: -120 °C

Exercise: melting point for "CCOC(=O)c1ccc(N)cc1" ?
Solution: 88 to 92 °C

Exercise: Dear colleague, I am looking for the recorded melting point of the following molecule: "c1ccc(-c2ccccc2-c2ccccc2)cc1"
Solution: 56 to 57 °C

---

- test.context: a range is the spread between reports
measure: melting point

Example compounds with recorded melting point:
c1ccc(Nc2ccc(-c3ccc(Nc4ccccc4)cc3)cc2)cc1 = 247 to 248 °C
COc1ccc2nc(N)sc2c1 = 163 to 166 °C
Clc1ccc(Br)cc1Cl = 24 to 25 °C
O=[N+]([O-])c1ccc2nc[nH]c2c1 = 208 °C
Cc1cccc(C(C)(C)C)c1 = -41.4 to -41 °C

Exercise: Please look up its melting point: "CCN1CCOCC1"
Solution: -64 to -63 °C

Exercise: GET /values?readout=melting point&item= "ClCc1ccccc1"
Solution: -45 to -43 °C

Exercise: I'd like to know its melting point. The compound in question is "Oc1cccc2cccnc12"
Solution: 74 to 76 °C

Exercise: // returns reported melting point for input "O=S(=O)(Cl)c1ccccc1"
Solution: 14.5 to 15 °C

Exercise: Given the entry "O=C(CC(=O)C(F)(F)F)c1cccs1" , report its measured melting point.
Solution: 42 to 43 °C

Exercise: What value of melting point has been reported for the following compound? CC12CCC3c4ccc(O)cc4CCC3C1CC(O)C2O (stereo not drawn)
Solution: 281 to 282 °C

Exercise: // melting point lookup, key: "CCc1nc(C)c[nH]1"
Solution: 47 to 50.5 °C

Exercise: What melting point value was documented for this compound, "CC(N)(CO)CO" ?
Solution: 110 to 111 °C

Exercise: Dear colleague, I am looking for the recorded melting point of the following compound: "Nc1c(Cl)ccc(Cl)c1C(=O)O"
Solution: 152 to 155 °C

Exercise: For the compound "[O-][N+](=Nc1ccccc1)c1ccccc1" , what melting point is on record?
Solution: 35 to 36 °C

Exercise: # query: melting point of entry "c1ccc2c(c1)cc1ccc3cccc4ccc2c1c34"
Solution: 176 to 179 °C

Exercise: Look at this compound and give its reported melting point. "BrC1CCCCC1"
Solution: -57 to -56.5 °C

Exercise: Which melting point is reported for this compound? "ClC(Cl)Cl"
Solution: -63.6 to -63 °C

Exercise: Bench note: what melting point did "O=C(c1ccccc1)c1ccccn1" show?
Solution: 42 to 43 °C

Exercise: Which melting point is reported for this compound? "CCOS(=O)(=O)c1ccc(C)cc1"
Solution: 32 to 34.5 °C

Exercise: Would you mind telling me what melting point value was observed for "CCC(C)(C)C" ?
Solution: -100 to -99 °C

Exercise: Look at this compound and give its reported melting point. "Cc1ncc([N+](=O)[O-])n1C"
Solution: 137 to 140 °C

Exercise: Which measured melting point value corresponds to "CC(=O)Nc1ccccc1[N+](=O)[O-]" ?
Solution: 92 to 94 °C
